assayInfo: Hemolysis test using human erythrocytes
Type: cell-based
experimentalConditions: human erythrocytes isolated from blood of healthy donors, 1 h at 37 °C, highest doses (range 0.01–40 µM), read-out: level of hemolysis
reportedMetric: hemolysis at 1 h

CO[C@@H](C(=O)N[C@H]1CCCCNC1=O)[C@H](O)[C@@H](O)[C@H](O)/C=C/C(C)(C)C ... ~2%

Prompt: Provide hemolysis at 1 h value for the following compound: CO[C@@H](C(=O)N[C@@H](C)C(=O)NCCCOC(=O)C1CCCCC1)[C@H](O)[C@@H](O)[C@H](O)/C=C/C(C)(C)C
Response: ~2%

---

We begin with a simple list: items and their reported viability.
assayInfo: Toxicity test in white blood cells (CCK-8)
Type: cell-based
experimentalConditions: human; WBC, 1 and 12 h of exposure, all doses tested (0.01–40 µM)

CO[C@@H](C(=O)N[C@H]1CCCCNC1=O)[C@H](O)[C@@H](O)[C@H](O)/C=C/C(C)(C)C ... ~100%

Then this compound:
Prompt: Provide viability value for the following compound: CO[C@@H](C(=O)N[C@@H](C)C(=O)NCCCOC(=O)C1CCCCC1)[C@H](O)[C@@H](O)[C@H](O)/C=C/C(C)(C)C
Response: ~100%

---

Tested on: CCD18 normal colon fibroblast cell line
assayInfo: Proliferation assay (Sulforhodamine B), CCD18
Type: cell-based
experimentalConditions: Homo sapiens, CCD18, 72 h treatment, mean ± SD of triplicate samples
reportedMetric: pIC50
pIC50 (log units): -log10 of the concentration in mol/L.

Illustrative cases are given below, each with its answer.
CO[C@@H](C(=O)N[C@@H](C)C(=O)NCCCOC(=O)C1CCCCC1)[C@H](O)[C@@H](O)[C@H](O)/C=C/C(C)(C)C [Ben V] ... 5.29
O=c1[nH]cc(F)c(=O)[nH]1 [5-fluorouracil, reference compound] ... 5.13

Then this molecule:
Prompt: Provide pIC50 value for the following molecule: CO[C@@H](C(=O)N[C@H]1CCCCNC1=O)[C@H](O)[C@@H](O)[C@H](O)/C=C/C(C)(C)C [Ben I]
Response: 5.33
